Target: human PF4 (Homo sapiens, UniProt P02776)
Construct: PF4 is a 70 amino acid, lysine-rich 7.8 kDa platelet-specific protein; made in house; host or cells: Escherichia coli BL21DE3 pLysS (pT7-7) and/or Drosophila S2 cells
Sequence (P02776 32-101): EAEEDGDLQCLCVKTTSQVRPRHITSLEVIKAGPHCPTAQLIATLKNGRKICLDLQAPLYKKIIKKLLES
Assay: Inhibition of PF4 tetramer formation (BS3 cross-linking, SDS-PAGE)
Assay type: biochemical
Conditions: read-out: IC50 of PF4 tetramer formation inhibition
Simple rule here: IC50 less than 3 µM is Y, otherwise N.

- Compound: "O=C(c1ccc2c(c1)C(=O)C(C(=O)NCCc1ccc(F)cc1)C2=O)c1ccc2c(c1)C(=O)C(C(=O)NCCc1ccc(F)cc1)C2=O (stereo not shown) [Example 22]"
  Label: "Y"
- Compound: "CCCCc1ccc(NC(=O)C2C(=O)c3ccc(S(=O)(=O)c4ccc5c(c4)C(=O)C(C(=O)Nc4ccc(CCCC)cc4)C5=O)cc3C2=O)cc1 (stereo not shown) [Example 102]"
  Label: "Y"
- Compound: "CC(C)(C)OC(=O)NCC(=O)C1C(=O)c2ccc(S(=O)(=O)c3ccc4c(c3)C(=O)C(C(=O)CNC(=O)OC(C)(C)C)C4=O)cc2C1=O (stereo not shown) [Example 174]"
  Label: "N"
- Compound: "CC(C)(C)OC(=O)N1CC[C@@H](C(=O)C2C(=O)c3ccc(C(=O)c4ccc5c(c4)C(=O)C(C(=O)[C@@H]4CCN(C(=O)OC(C)(C)C)C4)C5=O)cc3C2=O)C1 (stereo partly shown) [Example 123]"
  Label: "Y"
- Compound: "O=C(c1ccc2c(c1)C(=O)C(C(=O)NCC1CC1)C2=O)c1ccc2c(c1)C(=O)C(C(=O)NCC1CC1)C2=O (stereo not shown) [Example 76]"
  Label: "Y"
- Compound: "COC(=O)c1ccccc1NC(=O)C1C(=O)c2ccc(C(=O)c3ccc4c(c3)C(=O)C(C(=O)Nc3ccccc3C(=O)OC)C4=O)cc2C1=O (stereo not shown) [Example 99]"
  Label: "N"
- Compound: "O=C(c1ccc2c(c1)C(=O)C(C(=O)NC1CCCC1)C2=O)c1ccc2c(c1)C(=O)C(C(=O)NC1CCCC1)C2=O (stereo not shown) [Example 71]"
  Label: "Y"
- Compound: "O=C(NCCc1ccccc1)C1C(=O)c2ccc(S(=O)(=O)c3ccc4c(c3)C(=O)C(C(=O)NCCc3ccccc3)C4=O)cc2C1=O (stereo not shown) [Example 33]"
  Label: "Y"
- Compound: "O=C(c1ccc2c(c1)C(=O)C(C(=O)NCc1ccc(F)cc1)C2=O)c1ccc2c(c1)C(=O)C(C(=O)NCc1ccc(F)cc1)C2=O (stereo not shown) [Example 26]"
  Label: "N"

Then there is this compound:
Query: In plain terms, does COCCOCCC(=O)C1C(=O)c2ccc(C(=O)c3ccc4c(c3)C(=O)C(C(=O)CCOCCOC)C4=O)cc2C1=O (stereo not shown) [Example 382] come in under 3 µM for IC50?
Response: Y
